# cell viability per record follows
# Tested on: U2OS
# MEASUREMENT PROTOCOL: cell viability relative to DMSO; higher = less toxic
# ASSAY CONTEXT: 72 h; 10 nM
Number in %, nothing else.

Use the examples below as a reference point.
COMPOUND: Clc1ccc(COC(Cn2ccnc2)c2ccc(Cl)cc2Cl)cc1 (stereo not given)
REPORTED MEASUREMENT: 97.8
//
COMPOUND: CCCCCCCNS(=O)(=O)c1cccc2c(Cl)cccc12
REPORTED MEASUREMENT: 98.1
//
COMPOUND: O=C(O)CCC(=O)C(=O)O
REPORTED MEASUREMENT: 99.5
//
COMPOUND: CC12CCC(CC1=O)C2(C)C (stereo not drawn) [camphor-(+)]
REPORTED MEASUREMENT: 101
//
COMPOUND: CCn1nc(C2CCN(C(=O)CCO)CC2)nc1-c1cnc(N)c(-c2nnc(C(C)(C)C)o2)n1
REPORTED MEASUREMENT: 97.5

Prompt: Report its cell viability with U2OS as the test system: "CN(c1ccccc1CNc1nc(Nc2ccc3c(c2)CC(=O)N3)ncc1C(F)(F)F)S(C)(=O)=O"
Response: 102

Prompt: Write down the reported cell viability (system: U2OS) of "N[C@@H]1CCCCN(c2c(F)cc3c(=O)c(C(=O)O)cn(C4CC4)c3c2Cl)C1"
Response: 99.5
